Assay: Cytotoxicity against African green monkey Vero E6 cells infected with Oropouche virus assessed as reduction in cell viability by visual analysis
Assay type: toxicity, cell-based, Vero C1008
Conditions: chlorocebus sabaeus
experimental_readout: CC50 (µM)
# value in µM; strip the unit string

Name the recorded CC50 of the item `Nc1ncnn2c([C@@H]3N[C@H](CO)[C@@H](O)[C@H]3O)ccc12` in your answer.
24

* * *

Assay: Selectivity index, ratio of CC50 for cytotoxicity against African green monkey Vero 76 cells infected with Rift valley fever virus assessed as reduction in cell viability by neutral red dye based analysis to EC50 for antiviral activity against Rift valley fever virus infected in African green monkey Vero 76 cells assessed as reduction in virus-induced cytopathic effect by neutral red dye based analysis
Format: toxicity
Details: read-out: Ratio CC50/EC50
experimental_readout: selectivity ratio

chemical_structure	selectivity ratio
Nc1ncnc2c([C@@H]3N[C@H](CO)[C@@H](O)[C@H]3O)n[nH]c12	7.6
Nc1ncnc2c([C@@H]3N[C@H](CO)[C@@H](O)[C@H]3O)c[nH]c12	> 3.7
CC(C)OC(=O)[C@H](C)N[P@](=O)(OC[C@H]1N[C@@H](c2ccc3c(N)ncnn23)[C@H](O)[C@@H]1O)Oc1ccccc1	> 32

In the following, a different compound is considered.
Name the recorded selectivity ratio of the item `Nc1ncnn2c([C@@H]3N[C@H](CO)[C@@H](O)[C@H]3O)ccc12` in your answer.
> 89
